tested on: Fibroblast; assay: Multiplex assay against human fibroblast; format: toxicity, cell-based; details: 12 h, 1 µM, compound concentration 1 uM, replicate 1
measurement.type: Population Healthy Nuclei (%)
State just the number; it will be interpreted in %.

CNC(=O)Nc1ccc2c(c1)[C@@]1(CC2)OC(=O)N(CC(=O)N(Cc2ccc(F)cc2)[C@@H](C)C(F)(F)F)C1=O ... 60
COC(=O)C1=C(C)NC(C)=C(C(=O)OCCCN2CCC(c3ccccc3)(c3ccccc3)CC2)[C@H]1c1cccc([N+](=O)[O-])c1 ... 45
O=C(c1cc2c(cc1F)OC(c1ccc(F)cc1)(c1ccc(Cl)cc1Cl)O2)N1CCOCC1 (stereo not drawn) ... 47

get_value(item= CNC(=O)Nc1ccc(-c2nc(N3CC4CCC(C3)O4)c3cnn(C4CCC5(CC4)OCCO5)c3n2)cc1 , readout=Population Healthy Nuclei (%)) returns 32

====

tested on: U2OS; test: Multiplex assay against U2OS; assay type: toxicity, cell-based; conditions: human, 24 h, 10 µM, compound concentration 10 uM, replicate 1
# label = bin(measured Population Tubulin-Different-Phenotype (%)), where bins are low range: < 20%; mid range: ≥ 20% and < 90%; high range: ≥ 90%

Cc1nc(N2CC[C@H](O)C2)ncc1-c1cc(C(F)(F)F)cc2[nH]ncc12 ... mid range
CC(C)OC(=O)N1CCC(Oc2ncnc3c2cnn3-c2ccc(S(C)(=O)=O)cc2F)CC1 ... low range
C[C@]12CC[C@@H]3c4ccc(O)cc4CC[C@H]3[C@@H]1CC[C@@H]2O ... low range
O=c1cc(N2CCOCC2)oc2c(-c3cccc4c3sc3ccccc34)cccc12 ... high range

Lab log: CC(C)Oc1ccccc1C(=O)Nc1ccccc1C(=O)Nc1cccc(S(=O)(=O)C(F)(F)F)c1 — assign Population Tubulin-Different-Phenotype (%) category
high range

Lab log: C=CC(=O)Nc1cccc(Oc2nc(Nc3ccc(N4CCN(C)CC4)cc3OC)ncc2Cl)c1 — assign Population Tubulin-Different-Phenotype (%) category
low range

====

tested on: Fibroblast; experiment: Multiplex assay against human fibroblast; type: toxicity, cell-based; details: 48 h, 1 µM, compound concentration 1 uM, replicate 1
Measured Population Healthy Nuclei (%) accompanies every entry in the list below.
State just the number; it will be interpreted in %.

Example entries begin here.
COc1ccc(-c2ccc3ncc4c(c3c2)n(-c2ccc(N3CCNCC3)c(C(F)(F)F)c2)c(=O)n4C)cn1.O=C(O)/C=C\C(=O)O ... 25
CCc1nn(CCCN2CCN(c3cccc(Cl)c3)CC2)c(=O)n1CCOc1ccccc1.Cl [NEFAZODONE HYDROCHLORIDE] ... 58
CC(C)OC(=O)N1CCC(Oc2ncnc3c2cnn3-c2ccc(S(C)(=O)=O)cc2F)CC1 ... 52
CC(C)Oc1ccccc1C(=O)Nc1ccccc1C(=O)Nc1cccc(S(=O)(=O)C(F)(F)F)c1 ... 57
Cl.O=C(O)c1cc(-c2ccc(C3CCNCC3)cc2)c2ccc(-c3ccc(C(F)(F)F)cc3)cc2c1 ... 40

get_value(item= CC1=C(C(=O)Nc2cc3cn[nH]c3cc2F)C(c2ccc(C(F)(F)F)cc2)CC(=O)N1 (centres undefined) , readout=Population Healthy Nuclei (%)) returns 48

get_value(item= Cc1ccc2c(c1)c1c(n2CCc2ccc(C)nc2)CCN(C)C1 [LATREPIRDINE] , readout=Population Healthy Nuclei (%)) returns 55

get_value(item= CC(C)(C)NC[C@H](O)COc1nsnc1N1CCOCC1 , readout=Population Healthy Nuclei (%)) returns 53

get_value(item= COc1cc(Nc2nccc(-c3cnn4nc(OC)ccc34)n2)cc(C(F)(F)F)c1 , readout=Population Healthy Nuclei (%)) returns 50
